# target: T1, dopamine D1 receptor, C-terminally tagged with Renilla luciferase variant 8, P21728
# T1 chain: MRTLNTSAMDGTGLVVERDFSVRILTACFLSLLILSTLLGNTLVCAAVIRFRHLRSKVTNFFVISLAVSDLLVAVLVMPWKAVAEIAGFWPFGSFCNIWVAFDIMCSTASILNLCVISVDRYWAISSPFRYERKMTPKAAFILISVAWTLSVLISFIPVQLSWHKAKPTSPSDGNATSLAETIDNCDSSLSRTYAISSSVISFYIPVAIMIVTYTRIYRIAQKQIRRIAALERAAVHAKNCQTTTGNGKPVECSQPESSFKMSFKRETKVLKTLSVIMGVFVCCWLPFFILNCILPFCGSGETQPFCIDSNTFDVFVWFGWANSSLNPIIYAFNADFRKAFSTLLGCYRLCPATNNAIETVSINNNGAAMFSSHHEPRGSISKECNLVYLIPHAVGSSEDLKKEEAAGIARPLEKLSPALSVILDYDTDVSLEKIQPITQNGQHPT
# assayProcedure: BRET
# experimentalConditions: chain shown with the change; HEK293 arrestin 2/3 KO cells; agonist-induced minus basal BRET; average at 10 and 15 min; parent: est. 0.032; read off a plot
measuredProperty: response

binder	observedResult
Venus-tagged arrestin-3 A87V base mutant, P32120 G65P (protein) MGEKPGTRVFKKSSPNCKLTVYLGKRDFVDHLDKVDPVDGVVLVDPDYLKDRKVFVTLTCAFRYPREDLDVLGLSFRKDLFIANYQVFPPTPNPPRPPTRLQERLLRKLGQHAHPFFFTIPQNLPCSVTLQPGPEDTGKACGVDFEIRAFCAKSLEEKSHKRNSVRLVIRKVQFAPEKPGPQPSAETTRHFLMSDRSLHLEASLDKELYYHGEPLNVNVHVTNNSTKTVKKIKVSVRQYADICLFSTAQYKCPVAQVEQDDQVSPSSTFCKVYTITPLLSNNREKRGLALDGKLKHEDTNLASSTIVKEGANKEVLGILVSYRVKVKLVVSRGGDVSVELPFVLMHPKPHDHIALPRPQSAA	0.033
